Each recorded value in this set is attributed to ChEMBL document CHEMBL1201862.

Listed below: EC50 values for each entry.
ASSAY NOTES: Luminescence Cell-Based Dose Confirmation HTS to Identify Activators of 5'UTR Stem-Loop Driven Alpha-Synuclein mRNA Translation in H4 Neuroglioblastoma Cells. [Related pubchem assays: 1829 (Project Summary), 1814 (Primary HTS)]
Format: functional
Active and inactive are the calls of the source. Cut-off read from the data, not from the text of the source: actives have a measured EC50 and inactives only a lower limit.

| SMI | EC50 |
| --- | --- |
| Cc1nnc(SCC(=O)NC(=O)Nc2ccc3c(c2)OCCO3)n1N | 11.9 µM (active) |
| Cc1cc2nc(SCCN3CCOCC3)[nH]c2cc1C | < 0.1 µM (active) |
| Cc1sc2ncnc(Sc3nc4ccccc4s3)c2c1C | > 120 µM (not active) |
| c1ccc(N=Nc2ccc3cccccc2-3)cc1 | 0.771 µM (active) |
